Listing: percentage damage caused to the plant, ECHCG (five point scale) of selected compounds
- System: Echinochloa crus-galli (ECHCG)
- assay.protocol: Post-emergence efficacy, glasshouse pot test
- Format: in vivo
- measurement.parameters: 250 g/Ha, evaluated after 13 days

CC1(C)C(=O)C(c2c(Cl)ccc(Cl)c2OCc2ccccc2)C(=O)c2nccnc21 (stereo not shown) ... 5 (5=80-100%)
CC1(C)C(=O)C(c2c(F)ccc(Cl)c2OCc2ccccc2)C(=O)c2nccnc21 (stereo not shown) ... 5 (5=80-100%)
CC1(C)c2nccnc2C(=O)C(c2c(F)ccc(Cl)c2OCc2ccccc2)S1(=O)=O (stereo not shown) ... 4 (4=60-79%)

// moving on: another record for percentage damage caused to the plant, ECHCG (five point scale)
If you can, please state the reported percentage damage caused to the plant, ECHCG (five point scale) value of O=C1c2nccnc2CS(=O)(=O)C1c1c(Cl)ccc(Cl)c1OCc1ccccc1 (stereo not shown) .
5 (5=80-100%)
